Consider the following compounds; for each one, report its pIC50.
target_system: human CRTH2 (Homo sapiens (Human), UniProt Q9Y5Y4)
Sequence (Q9Y5Y4 whole entry): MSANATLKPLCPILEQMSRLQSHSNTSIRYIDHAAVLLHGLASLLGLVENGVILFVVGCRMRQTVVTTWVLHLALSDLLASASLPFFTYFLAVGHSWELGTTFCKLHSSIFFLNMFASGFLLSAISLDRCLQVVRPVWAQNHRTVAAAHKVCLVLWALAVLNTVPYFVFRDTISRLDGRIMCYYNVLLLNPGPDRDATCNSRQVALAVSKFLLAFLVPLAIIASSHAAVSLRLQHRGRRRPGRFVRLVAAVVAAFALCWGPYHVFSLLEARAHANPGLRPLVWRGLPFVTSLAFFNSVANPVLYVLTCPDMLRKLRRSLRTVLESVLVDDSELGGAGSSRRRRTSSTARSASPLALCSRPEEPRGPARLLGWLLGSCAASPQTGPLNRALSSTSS
assay_name: Human CRTH2 Receptor Binding Assay (whole cell, [3H]ramatroban)
reported_conditions: CHO-K1 cells expressing human CRTH2 and G-alpha16; 20 nM [3H]ramatroban; 1 hour, room temperature
Scale explanation: pIC50 corresponds to minus log10 of a concentration expressed in moles per litre.

In: Name the recorded pIC50 for `Cc1c(CC(=O)O)cc2ccc(F)cc2c1-c1ccc(S(C)(=O)=O)cc1` .
Out: 7.40

In: Name the recorded pIC50 for `Cc1c(CC(=O)O)cc2ccc(F)cc2c1-c1ccc(S(C)(=O)=O)cn1` .
Out: 6.86

In: Name the recorded pIC50 for `CC(=O)Nc1ccc(-c2c(C)c(CC(=O)O)cc3ccc(Cl)cc23)cc1` .
Out: 7.53

In: Name the recorded pIC50 for `Cc1c(CC(=O)O)cc2ccc(Cl)cc2c1-c1ccc(S(=O)(=O)N2CCOCC2)cc1` .
Out: 8.62

In: Name the recorded pIC50 for `Cc1ccccc1S(=O)(=O)Nc1ccc(-c2c(C)c(CC(=O)O)cc3ccc(Cl)cc23)cc1` .
Out: 8.08

In: Name the recorded pIC50 for `Cc1c(CC(=O)O)cc2ccc(Cl)cc2c1-c1ccc(NS(=O)(=O)c2ccccc2C(F)(F)F)cc1` .
Out: 8.05

In: Name the recorded pIC50 for `Cc1ccccc1S(=O)(=O)c1ccc(-c2c(C)c(CC(=O)O)cc3ccc(F)cc23)cc1` .
Out: 8.54

In: Name the recorded pIC50 for `Cc1c(CC(=O)O)cc2ccc(Cl)cc2c1-c1ccc(NC(=O)c2ccccc2)cc1` .
Out: 8.21

In: Name the recorded pIC50 for `Cc1c(CC(=O)O)cc2ccc(F)cc2c1-c1ccc(NS(=O)(=O)c2cc(C(F)(F)F)cc(C(F)(F)F)c2)cc1` .
Out: 8.25

In: Name the recorded pIC50 for `Cc1c(CC(=O)O)cc2ccc(Cl)cc2c1-c1ccc(NS(=O)(=O)c2ccccc2)cc1` .
Out: 8.43

In: Name the recorded pIC50 for `Cc1c(CC(=O)O)cc2ccc(Cl)cc2c1-c1ccc(NC(=O)Nc2ccccc2)cc1` .
Out: 7.72

In: Name the recorded pIC50 for `Cc1c(CC(=O)O)cc2ccc(F)cc2c1-c1ccc(NS(=O)(=O)c2ccccc2)cc1` .
Out: 8.49

* * *

target_system: human CRTH2 (Homo sapiens (Human), UniProt Q9Y5Y4)
assay_name: Calcium Flux Assay Using Fluorometric Imaging Plate Reader (FLIPR)
Type: cell-based
reported_conditions: CHO-K1 cells with G-alpha 16 and human CRTH2; inhibition of DK-PGD2 ligand-induced Ca2+ flux
Field 'label' (enum: YES / NO). Set to YES when IC50 is strictly under 7 nM; else NO.

In: Does this compound meet the criterion IC50 < 7 nM? `Cc1c(CC(=O)O)cc2ccc(F)cc2c1-c1ccc(S(=O)(=O)c2cc(Cl)ccc2Cl)cc1`
Out: YES

In: Does this compound meet the criterion IC50 < 7 nM? `Cc1ccc(NS(=O)(=O)c2ccc(-c3c(C)c(CC(=O)O)cc4ccc(Cl)cc34)cc2)cc1`
Out: YES

In: Does this compound meet the criterion IC50 < 7 nM? `Cc1c(CC(=O)O)cc2ccc(Cl)cc2c1-c1ccc(S(=O)(=O)c2cc(Cl)ccc2Cl)cc1`
Out: YES

In: Does this compound meet the criterion IC50 < 7 nM? `Cc1c(CC(=O)O)cc2ccc(Cl)cc2c1-c1ccc(S(=O)(=O)c2ccccc2Cl)cc1`
Out: NO

In: Does this compound meet the criterion IC50 < 7 nM? `Cc1c(CC(=O)O)cc2ccc(F)cc2c1-c1ccc(S(=O)(=O)c2ccccc2Cl)cc1`
Out: YES

In: Does this compound meet the criterion IC50 < 7 nM? `Cc1c(CC(=O)O)cc2ccc(Cl)cc2c1-c1ccc(S(=O)(=O)c2cc(Cl)cc(Cl)c2)cc1`
Out: NO

In: Does this compound meet the criterion IC50 < 7 nM? `Cc1ccccc1S(=O)(=O)c1ccc(-c2c(C)c(CC(=O)O)cc3ccc(F)cc23)cc1`
Out: YES

In: Does this compound meet the criterion IC50 < 7 nM? `Cc1c(CC(=O)O)cc2ccc(Cl)cc2c1-c1ccc(S(=O)(=O)c2ccccc2C(F)(F)F)cc1`
Out: YES

In: Does this compound meet the criterion IC50 < 7 nM? `Cc1c(CC(=O)O)cc2ccc(Cl)cc2c1-c1ccc(S(=O)(=O)NCc2ccccc2)cc1`
Out: YES

In: Does this compound meet the criterion IC50 < 7 nM? `Cc1c(CC(=O)O)cc2ccc(F)cc2c1-c1ccc(S(=O)(=O)c2cc(F)cc(F)c2)cc1`
Out: YES

In: Does this compound meet the criterion IC50 < 7 nM? `Cc1c(CC(=O)O)cc2ccc(Cl)cc2c1-c1ccc(S(=O)(=O)NCCO)cc1`
Out: YES

In: Does this compound meet the criterion IC50 < 7 nM? `Cc1c(CC(=O)O)cc2ccc(Cl)cc2c1-c1ccc(S(=O)(=O)c2cccc(Cl)c2)cc1`
Out: NO

In: Does this compound meet the criterion IC50 < 7 nM? `Cc1c(CC(=O)O)cc2ccc(F)cc2c1-c1ccc(S(=O)(=O)c2cccc(Cl)c2)cc1`
Out: YES

In: Does this compound meet the criterion IC50 < 7 nM? `Cc1c(CC(=O)O)cc2ccc(Cl)cc2c1-c1ccc(S(=O)(=O)c2ccc(OC(F)(F)F)cc2)cc1`
Out: NO

In: Does this compound meet the criterion IC50 < 7 nM? `Cc1c(CC(=O)O)cc2ccc(F)cc2c1-c1ccc(S(=O)(=O)c2cc(C(F)(F)F)cc(C(F)(F)F)c2)cc1`
Out: NO

* * *

target_system: human CRTH2 (Homo sapiens (Human))
assay_name: Calcium Flux Assay Using Fluorometric Imaging Plate Reader (FLIPR)
Format: cell-based
reported_conditions: CHO-K1 cells with G-alpha 16 and human CRTH2; inhibition of DK-PGD2 ligand-induced Ca2+ flux
Consider the following compounds; for each one, report its log10 of IC50.
log10 IC50, nM

In: Name the recorded log10 of IC50 for `Cc1c(CC(=O)O)cc2ccc(F)cc2c1-c1ccc(S(C)(=O)=O)cc1` .
Out: 1.40

In: Name the recorded log10 of IC50 for `Cc1c(CC(=O)O)cc2ccc(F)cc2c1-c1ccc(NS(=O)(=O)c2cc(C(F)(F)F)cc(C(F)(F)F)c2)cc1` .
Out: -1.00

In: Name the recorded log10 of IC50 for `Cc1c(CC(=O)O)cc2ccc(F)cc2c1-c1ccc(S(=O)(=O)c2ccc(OC(F)(F)F)cc2)cc1` .
Out: 1.20

In: Name the recorded log10 of IC50 for `Cc1c(CC(=O)O)cc2ccc(F)cc2c1-c1ccc(S(=O)(=O)N2CCCCC2)cc1` .
Out: 0.61

In: Name the recorded log10 of IC50 for `Cc1c(CC(=O)O)cc2ccc(F)cc2c1-c1ccc(S(=O)(=O)NC(C)C)cc1` .
Out: 0.23

In: Name the recorded log10 of IC50 for `Cc1c(CC(=O)O)cc2ccc(Cl)cc2c1-c1ccc(S(=O)(=O)NC(C)C)cc1` .
Out: 0.18

In: Name the recorded log10 of IC50 for `Cc1c(Cl)cccc1NS(=O)(=O)c1ccc(-c2c(C)c(CC(=O)O)cc3ccc(Cl)cc23)cc1` .
Out: 0.83

In: Name the recorded log10 of IC50 for `Cc1c(CC(=O)O)cc2ccc(Cl)cc2c1-c1ccc(S(=O)(=O)NC2CCCCC2)cc1` .
Out: 0.79

* * *

target_system: human CRTH2 (Homo sapiens (Human))
assay_name: Calcium Flux Assay Using Fluorometric Imaging Plate Reader (FLIPR)
Format: cell-based
reported_conditions: CHO-K1 cells with G-alpha 16 and human CRTH2; inhibition of DK-PGD2 ligand-induced Ca2+ flux
observation_type: pIC50
Scale explanation: pIC50 corresponds to minus log10 of a concentration expressed in moles per litre.

In: Find the measured pIC50: item `Cc1c(CC(=O)O)cc2ccc(F)cc2c1-c1ccc(S(=O)(=O)c2ccc(Cl)cc2)cc1` , target or system human CRTH2 (Homo sapiens (Human)).
Out: 8.49

In: Find the measured pIC50: item `CCN(CC)S(=O)(=O)c1ccc(-c2c(C)c(CC(=O)O)cc3ccc(Cl)cc23)cc1` , target or system human CRTH2 (Homo sapiens (Human)).
Out: 9.30

In: Find the measured pIC50: item `Cc1c(Cl)cccc1NS(=O)(=O)c1ccc(-c2c(C)c(CC(=O)O)cc3ccc(F)cc23)cc1` , target or system human CRTH2 (Homo sapiens (Human)).
Out: 9.05

In: Find the measured pIC50: item `Cc1c(CC(=O)O)cc2ccc(F)cc2c1-c1ccc(S(=O)(=O)c2ccc(F)cc2F)cc1` , target or system human CRTH2 (Homo sapiens (Human)).
Out: 8.92

In: Find the measured pIC50: item `Cc1c(CC(=O)O)cc2ccc(F)cc2c1-c1ccc(S(=O)(=O)c2ccccc2OC(F)(F)F)cc1` , target or system human CRTH2 (Homo sapiens (Human)).
Out: 9.00

In: Find the measured pIC50: item `Cc1c(CC(=O)O)cc2ccc(F)cc2c1-c1ccc(S(=O)(=O)Nc2cccc(Cl)c2)cc1` , target or system human CRTH2 (Homo sapiens (Human)).
Out: 8.82

In: Find the measured pIC50: item `COc1ccc(CN(C(C)C)S(=O)(=O)c2ccc(-c3c(C)c(CC(=O)O)cc4ccc(Cl)cc34)cc2)cc1` , target or system human CRTH2 (Homo sapiens (Human)).
Out: 8.51

In: Find the measured pIC50: item `Cc1c(CC(=O)O)cc2ccc(F)cc2c1-c1ccc(S(=O)(=O)NCCO)cc1` , target or system human CRTH2 (Homo sapiens (Human)).
Out: 8.21

In: Find the measured pIC50: item `COc1ccc(CNS(=O)(=O)c2ccc(-c3c(C)c(CC(=O)O)cc4ccc(F)cc34)cc2)cc1` , target or system human CRTH2 (Homo sapiens (Human)).
Out: 8.49

In: Find the measured pIC50: item `Cc1c(CC(=O)O)cc2ccc(F)cc2c1-c1ccc(S(=O)(=O)N2CCCC2)cc1` , target or system human CRTH2 (Homo sapiens (Human)).
Out: 9.15

In: Find the measured pIC50: item `COc1ccc(CN(C(C)C)S(=O)(=O)c2ccc(-c3c(C)c(CC(=O)O)cc4ccc(F)cc34)cc2)cc1` , target or system human CRTH2 (Homo sapiens (Human)).
Out: 8.89

In: Find the measured pIC50: item `Cc1c(CC(=O)O)cc2ccc(Cl)cc2c1-c1ccc(S(=O)(=O)N2CCCCC2)cc1` , target or system human CRTH2 (Homo sapiens (Human)).
Out: 9.05

In: Find the measured pIC50: item `Cc1c(CC(=O)O)cc2ccc(F)cc2c1-c1ccc(S(=O)(=O)NCc2ccccc2)cc1` , target or system human CRTH2 (Homo sapiens (Human)).
Out: 9.40

In: Find the measured pIC50: item `CCN(CC)S(=O)(=O)c1ccc(-c2c(C)c(CC(=O)O)cc3ccc(F)cc23)cc1` , target or system human CRTH2 (Homo sapiens (Human)).
Out: 8.74

In: Find the measured pIC50: item `Cc1c(CC(=O)O)cc2ccc(Cl)cc2c1-c1ccc(S(=O)(=O)Nc2ccc(F)cc2)cc1` , target or system human CRTH2 (Homo sapiens (Human)).
Out: 8.96

In: Find the measured pIC50: item `Cc1c(CC(=O)O)cc2ccc(Cl)cc2c1-c1ccc(S(=O)(=O)c2cc(C(F)(F)F)cc(C(F)(F)F)c2)cc1` , target or system human CRTH2 (Homo sapiens (Human)).
Out: 7.35

In: Find the measured pIC50: item `Cc1c(CC(=O)O)cc2ccc(Cl)cc2c1-c1ccc(S(=O)(=O)c2cc(F)cc(F)c2)cc1` , target or system human CRTH2 (Homo sapiens (Human)).
Out: 9.15

In: Find the measured pIC50: item `Cc1c(CC(=O)O)cc2ccc(F)cc2c1-c1ccc(S(=O)(=O)c2ccc(Cl)cc2Cl)cc1` , target or system human CRTH2 (Homo sapiens (Human)).
Out: 8.04

In: Find the measured pIC50: item `Cc1c(CC(=O)O)cc2ccc(Cl)cc2c1-c1ccc(S(=O)(=O)c2c(F)cccc2F)cc1` , target or system human CRTH2 (Homo sapiens (Human)).
Out: 6.51

In: Find the measured pIC50: item `Cc1c(CC(=O)O)cc2ccc(Cl)cc2c1-c1ccc(S(=O)(=O)Nc2cccc(Cl)c2)cc1` , target or system human CRTH2 (Homo sapiens (Human)).
Out: 8.33

In: Find the measured pIC50: item `Cc1c(CC(=O)O)cc2ccc(Cl)cc2c1-c1ccc(S(=O)(=O)N2CCCC2)cc1` , target or system human CRTH2 (Homo sapiens (Human)).
Out: 9.10

In: Find the measured pIC50: item `Cc1c(CC(=O)O)cc2ccc(F)cc2c1-c1ccc(S(=O)(=O)c2cc(Cl)cc(Cl)c2)cc1` , target or system human CRTH2 (Homo sapiens (Human)).
Out: 8.27
